Target: methylenetetrahydrofolate reductase (cMTHFR) (Thermochaetoides thermophila)
Sequence (G0S5U9 1-614): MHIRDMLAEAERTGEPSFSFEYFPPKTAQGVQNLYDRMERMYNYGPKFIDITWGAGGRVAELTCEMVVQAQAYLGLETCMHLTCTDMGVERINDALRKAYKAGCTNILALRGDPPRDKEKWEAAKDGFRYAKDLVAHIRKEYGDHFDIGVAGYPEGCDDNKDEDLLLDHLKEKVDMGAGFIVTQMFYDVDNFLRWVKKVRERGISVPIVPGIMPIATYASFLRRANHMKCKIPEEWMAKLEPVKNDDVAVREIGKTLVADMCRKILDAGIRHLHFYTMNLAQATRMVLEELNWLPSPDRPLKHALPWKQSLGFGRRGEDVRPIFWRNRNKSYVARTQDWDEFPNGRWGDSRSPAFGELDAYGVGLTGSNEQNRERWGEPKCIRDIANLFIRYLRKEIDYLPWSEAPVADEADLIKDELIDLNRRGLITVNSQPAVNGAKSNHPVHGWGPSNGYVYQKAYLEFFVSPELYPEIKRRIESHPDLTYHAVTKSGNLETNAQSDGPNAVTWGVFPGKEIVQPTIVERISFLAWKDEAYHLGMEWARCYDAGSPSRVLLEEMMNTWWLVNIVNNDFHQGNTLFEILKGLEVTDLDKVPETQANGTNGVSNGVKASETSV
pKd: −log10 of the molar value.

{"columns": ["compound", "pKd"],
 "data": [
  ["C[S@@+](CC[C@H](N)C(=O)[O-])C[C@H]1O[C@@H](n2cnc3c(N)ncnc32)[C@H](O)[C@@H]1O [AdoMet]", "~4.73"]
]}

Origin of values: paper PMC11183114
